assay: Inhibition of N-type calcium channel alpha1B/alpha2delta-1/beta1b assessed as inhibition of KCl-induced calcium mobilization by FDSS
Reported IC50 is given for each of the following compounds.
A number alone suffices; assume nM.

Answered cases to consult:
- smiles str: "COc1ccccc1-n1nc(C2CCN(S(C)(=O)=O)CC2)cc1-c1ccc(Cl)c(C(F)(F)F)c1"
  IC50 / nM: 100
- smiles str: "COc1ccccc1-n1nc(CCCO)cc1-c1ccc(Cl)cc1"
  IC50 / nM: 97
- smiles str: "COc1ccccc1-n1nc(C2CCN(S(C)(=O)=O)CC2)cc1-c1ccc2c(ccn2C)c1"
  IC50 / nM: 68
- smiles str: "COc1ccccc1-n1nc(C2CCN(S(C)(=O)=O)CC2)cc1-c1ccc(Cl)c(C#N)c1"
  IC50 / nM: 95

Now let's try a different one.
Quick one: give measured IC50 for "COc1ccccc1-n1nc(C2CCN(S(C)(=O)=O)CC2)cc1-c1ccc(F)cc1"
98
